Source listed as PubChem BioAssay (NCI).

Tested on: KM12 colon
Assay: NCI tumour cell line growth inhibition, 48 h
TGI values, listed per item

c1ncc(C23C4C5C6C4C2C6C53)[nH]1 (stereo not drawn)	> 100 µM
COC(=O)C1(c2ccc(OC)cc2)NC(c2ccccc2)C2C(=O)N(c3ccc(OC)cc3)C(=O)C21 (stereo not drawn)	> 100 µM

Notebook entry, KM12 colon assay: TGI of COc1cc(/C=C2\N=C(c3ccccc3)N(/N=C/c3cc4cc(C)ccc4nc3Cl)C2=O)ccc1O = ? > 100 µM

---

TGI values, listed per item
Tested on: SR leukemia
Assay: NCI tumour cell line growth inhibition, 48 h
Hi! Could you send only the number? It should be in µM, unit omitted.

CCN1CCC(O)(c2ccccc2)C(C(=O)c2ccccc2)C1 (configuration not stated)	60.3

What value of TGI has been recorded for this entry: COc1cccc(C2C3=C(COC3=O)N(CCO)c3cc4c(cc32)CCC4)c1 (configuration not stated) 0.165

What value of TGI has been recorded for this entry: Cn1cc(-c2ccc3c(c2)ncn3-c2ccc(CC(=O)Nc3cc(C(C)(C)C)on3)cc2)cn1 8.49

What value of TGI has been recorded for this entry: Cc1ccc(S(=O)(=O)OC(C=O)C(O)C(O)COC(c2ccccc2)(c2ccccc2)c2ccccc2)cc1 (configuration not stated) 24.7
